The measured values listed here are drawn from PubChem BioAssay (NCI).

- Test system: LXFL 529 NSCLC
- protocol.text: NCI tumour cell line growth inhibition, 48 h
measurement.name: TGI

molecule=NC(=S)NNC(=O)/C(=C/c1ccc(/C=C(\NC(=O)c2ccccc2)C(=O)NNC(N)=S)cc1)NC(=O)c1ccccc1 measurement_name=TGI test_value="> 100 µM"
molecule="O=C(CC1Sc2ccccc2NC1=O)Nc1cc(Cl)ccc1Cl (stereo not drawn)" measurement_name=TGI test_value="> 100 µM"
molecule="CC(C)=CCCC1(C)C=Cc2c(c(C)cc3c2[nH]c2cc(O)ccc23)O1 (stereo not drawn)" measurement_name=TGI test_value="> 25 µM"
molecule=CCOC(C[C@H](O)[C@H]1COC(=S)S1)OCC measurement_name=TGI test_value="> 100 µM"
molecule=O=C(NCCCCCCNC(=O)c1cccc2ccccc12)c1cccc2ccccc12 measurement_name=TGI test_value="> 100 µM"
molecule=C=C(C)[C@@H]1CC=C(CO)CC1 measurement_name=TGI test_value="1320 µM"
molecule=O=C(NO)c1ccc([N+](=O)[O-])cc1 measurement_name=TGI test_value="83.8 µM"
molecule=CCCCCCn1c(SCC)c2ccccc2c1-c1nc(F)nc(F)n1 measurement_name=TGI test_value="> 100 µM"
